molecular target: RORγt (Homo sapiens); assay: RGA Assay: nuclear receptor transactivation assay, RORγt transactivation of a luciferase reporter; conditions: transiently transfected HEK 293 cells (pGL4.3 luc2P/GAL4UAS, pBIND Gal4DBD hRORC LBD), 20-24 hours incubation, luciferase readout
ATTRIBUTE MEASURED: IC50 (µM)

CCS(=O)(=O)c1ccc(CNC(=O)N2CC3(CCCC3)c3nc(-c4c(C5CC5)ncnc4C4CC4)ccc32)nc1: 0.37

[1] CCS(=O)(=O)c1ccc(CNC(=O)N2CC3(CCCC3)c3nc(-c4cc(CN5CC[C@H](O)C5)ccc4C4CC4)ccc32)cc1
[2] Cc1ncnc(C2CC2)c1-c1ccc2c(n1)C1(CCCC1)CN2C(=O)NCc1ccc(S(C)(=O)=O)cc1
Returns: the argument ( 1 or 2 ) having the larger IC50. When you have decided, please share the label of that item.
1

###

Target: RORγt (Homo sapiens)
Sequence (P51449 269-508 limits assumed): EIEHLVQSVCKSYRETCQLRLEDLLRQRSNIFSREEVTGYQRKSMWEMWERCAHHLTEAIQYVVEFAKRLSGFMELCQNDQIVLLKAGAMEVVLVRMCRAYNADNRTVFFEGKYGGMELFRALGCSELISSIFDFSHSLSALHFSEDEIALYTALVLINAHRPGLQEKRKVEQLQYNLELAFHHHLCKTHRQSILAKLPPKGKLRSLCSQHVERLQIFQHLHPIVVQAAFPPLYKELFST
Test: RGA Assay: nuclear receptor transactivation assay, RORγt transactivation of a luciferase reporter
Settings: transiently transfected HEK 293 cells (pGL4.3 luc2P/GAL4UAS, pBIND Gal4DBD hRORC LBD), 20-24 hours incubation, luciferase readout
Protocol: A nuclear receptor transactivation assay was performed to quantitate the ability of test compounds to inhibit RORγt transactivation of a luciferase reporter. A similar assay is described in: Khan et al., Bioorganic & Medicinal Chemistry Letters 23 (2013), 532-536. The system uses transiently transfected HEK 293 cells cotransfected with two plasmids (pGL4.3, luc2P/GAL4UAS/Hygro, and pBIND, Ga14DBD hRORC LBD1-3). […] The plates were read on an Envision plate reader to measure luminescence signal. […]
ATTRIBUTE MEASURED: IC50 (µM)

[P] CCS(=O)(=O)c1ccc(CNC(=O)N2CC3(CCCC3)c3nc(-c4sc(N)nc4C(F)(F)F)ccc32)cc1
[Q] CCS(=O)(=O)c1ccc(CNC(=O)N2CC3(CCCC3)c3nc(-c4ccc(C#N)cc4C)ccc32)cc1
Could you determine which record has the numerically smaller IC50? Candidates: P and Q Write down the label attached to your selection.
Q
(Q: 11 µM, P: 17 µM)

###

target: RORγt (Homo sapiens, UniProt P51449); experiment: RGA Assay: nuclear receptor transactivation assay, RORγt transactivation of a luciferase reporter; settings: transiently transfected HEK 293 cells (pGL4.3 luc2P/GAL4UAS, pBIND Gal4DBD hRORC LBD), 20-24 hours incubation, luciferase readout
pIC50: −log10 of the molar value.
ATTRIBUTE MEASURED: pIC50

Previously resolved entries follow.
COc1cc(C)c(-c2ccc3c(n2)C(C)(C)CN3C(=O)NCc2ccc(C#N)cc2)cn1: < 4.52
CC(C)c1ncncc1-c1cc2c(cn1)N(C(=O)NCc1ccc(S(C)(=O)=O)cc1)CC2(C)C: < 4.52
Cc1cc(C#N)ccc1-c1cc2c(cn1)N(C(=O)NCc1ccc(S(C)(=O)=O)cc1)CC2(C)C: < 4.52

Identify the measured pIC50 of `CCS(=O)(=O)c1ccc(CNC(=O)N2CC3(CCCC3)c3nc(-c4cncnc4C(C)C)ccc32)cc1` for RORγt (Homo sapiens, UniProt P51449).
5.92

What do we get for `COCCOc1cc(C#N)ccc1CNC(=O)N1CC2(CCCC2)c2nc(-c3cncnc3C(C)C)ccc21` ?
4.96

Also `CCS(=O)(=O)c1ccc(CNC(=O)N2CC3(CCCC3)c3nc(-c4c(C)n[nH]c4C)ccc32)cc1` ?
< 4.52
